Origin of values: the supplement of paper PMC10567573

B1: CFHR2 (parent)
chain: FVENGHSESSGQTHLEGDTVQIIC

# Variants of: B1
# protocol-details: protein stability index of a GFP-peptide fusion (GPS, HEK-293T) (PSI 1-6); higher = more stable;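 note: lentivirally expressed fusions sorted by FACS into six bins by GFP to DsRed ratio, PSI derived from sequencing read proportions per bin multiplied by bin number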
# assay-conditions: c terminus: a fixed tail appended
readout-label: protein stability index
No unit in the answer, only the number.

These recorded examples may help you get a feel for the data.
{"sequence-record": "FVENGHSESSGQTHLEQDTVQIIC [G17Q]", "protein stability index": 2.97}
{"sequence-record": "FVENGHSESSGQTHIEGDTVQIIC [L15I]", "protein stability index": 2.69}
{"sequence-record": "FVENGHSESSGQTHLEGATVQIIC [D18A]", "protein stability index": 2.13}
{"sequence-record": "FVENGHSESSGQTHLEGDTSQIIC [V20S]", "protein stability index": 2.74}
{"sequence-record": "FVENGHSESSGQTHREGDTVQIIC [L15R]", "protein stability index": 2.87}

Ask: Data request, read-out protein stability index, for FVENGHSESSGQTHLEGVTVQIIC [D18V]
Result: 2.34

Ask: Data request, read-out protein stability index, for FVENGHSESSGQTHKEGDTVQIIC [L15K]
Result: 3.25

Ask: Data request, read-out protein stability index, for FVENDHSESSGQTHLEGDTVQIIC [G5D]
Result: 3.64

Ask: Data request, read-out protein stability index, for FVENGHSESSGETHLEGDTVQIIC [Q12E]
Result: 3.67
